The entries below come with measured IC50 values attached.
Target: hcGAS (Homo sapiens)
Sequence (Q8N884 whole entry): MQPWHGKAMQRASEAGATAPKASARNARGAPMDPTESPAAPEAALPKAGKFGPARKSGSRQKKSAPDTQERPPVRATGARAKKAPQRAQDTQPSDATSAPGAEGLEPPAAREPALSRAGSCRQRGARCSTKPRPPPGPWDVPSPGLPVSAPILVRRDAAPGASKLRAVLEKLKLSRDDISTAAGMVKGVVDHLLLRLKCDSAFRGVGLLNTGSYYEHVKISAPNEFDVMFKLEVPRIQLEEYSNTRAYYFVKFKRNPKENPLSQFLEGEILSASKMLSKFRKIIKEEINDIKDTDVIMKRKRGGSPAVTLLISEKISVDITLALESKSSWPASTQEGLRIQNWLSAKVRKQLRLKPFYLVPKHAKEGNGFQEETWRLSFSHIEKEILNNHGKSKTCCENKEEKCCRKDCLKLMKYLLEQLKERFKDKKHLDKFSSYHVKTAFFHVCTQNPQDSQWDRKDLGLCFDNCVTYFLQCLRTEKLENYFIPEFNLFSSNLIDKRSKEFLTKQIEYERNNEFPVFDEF
Assay: hcGAS LCMS assay (direct measurement of cGAMP production by LC/MS)
Assay type: biochemical
Conditions: 4 h incubation with enzyme and substrates; cGAMP production by LC/MS; class symbols; read-out: hcGAS LCMS IC50

| Molecule | IC50 |
| --- | --- |
| COc1cccc(OC)c1-c1cc(C(=O)Nc2nnc(-n3nccc3N)s2)oc(=O)c1OCCN1CC2(CCS2)C1 | 0.5 to 1 nM |
| COc1cccc(OC)c1-c1cc(C(=O)Nc2nnc(-n3nccc3N)s2)oc(=O)c1OCC1(OC)CC1 | 0.5 to 1 nM |
| COc1c(-c2ccccc2S(C)(=O)=O)cc(C(=O)Nc2nnc(-n3nccc3C)s2)oc1=O | 5 to 20 nM |
| COC[C@@H](C)Oc1c(-c2c(OC)cccc2OC)cc(C(=O)Nc2nnc(-n3nccc3N)s2)oc1=O [Compound 47B] | < 0.5 nM |
